# TEST DETAILS: Relative lipophilicity of compound
# Type: physicochemical
# PROTOCOL CONDITIONS: reversed-phase TLC, acetone/water 2:1
Consider the following compounds and their measured Rm readings.

{"columns": ["SMILES STRUCTURE", "Rm"],
 "data": [
  ["COc1cc2c(cc1OC)C(c1cccc([N+](=O)[O-])c1)=NN(C)C(=O)C2", 0.052],
  ["COc1ccc2c(c1)CC(=O)NN=C2c1ccccc1", -0.052],
  ["COc1cc2c(cc1OC)C(c1ccc(C#N)cc1)=NN(C(C)=O)C(=O)C2", -0.065],
  ["COc1cc2c(cc1OC)C(c1cccc([N+](=O)[O-])c1)=NNC(=O)C2", -0.14],
  ["COc1cc2c(cc1OC)C(c1cccc(N)c1)=NN(C)C(=O)C2", -0.327],
  ["COc1cc2c(cc1OC)C(c1ccc([N+](=O)[O-])cc1)=NN(C)C(=O)C2", 0.11],
  ["COc1cc2c(cc1OC)C(c1cccc(N)c1)=NNC(=O)C2", -0.525],
  ["COc1cc2c(cc1OC)C(c1ccc(C#N)cc1)=NNC(=O)C2", -0.218],
  ["COc1ccc2c(c1)CC(=O)N(C)N=C2c1ccccc1", 0.189],
  ["COc1cc2c(cc1OC)C(c1ccc(Br)cc1)=NNC(=O)C2", 0.052],
  ["COc1cc2c(cc1OC)C(c1ccc(C#N)cc1)=NN(C)C(=O)C2", -0.031]
]}

###

Consider the following compounds and their measured ED50 readings.
# Test system: Mus musculus
# TEST DETAILS: Pentylenetetrazole-induced seizures in Swiss mice after 45 min pretreatment at a dose range 10-150 uM/kg
# Assay type: functional
MEASURE: ED50

{"columns": ["SMILES STRUCTURE", "MEASURE", "TEST VALUE"],
 "data": [
  ["COc1cc2c(cc1OC)C(c1cccc([N+](=O)[O-])c1)=NNC(=O)C2", "ED50", "> 150 µmol/kg"],
  ["COc1cc2c(cc1OC)C(c1ccc(N)cc1)=NNC(=O)C2", "ED50", "22.6 µmol/kg"],
  ["COc1cc2c(cc1OC)C(c1ccc(C#N)cc1)=NNC(=O)C2", "ED50", "> 150 µmol/kg"],
  ["COc1cc2c(cc1OC)C(c1ccc([N+](=O)[O-])cc1)=NN(C)C(=O)C2", "ED50", "> 150 µmol/kg"],
  ["COc1cc2c(cc1OC)C(c1ccc(Br)cc1)=NNC(=O)C2", "ED50", "> 150 µmol/kg"],
  ["COc1cc2c(cc1OC)C(c1ccccc1)=NN(C)C(=O)C2", "ED50", "89.9 µmol/kg"]
]}

###

# TEST DETAILS: Motor toxicity in 50% of mice on locomotion assessed by Rotarod test following 30 min ip administration (95% confidence limits)
# Format: organism-based
# PROTOCOL CONDITIONS: mouse, in vivo

{"columns": ["SMILES STRUCTURE", "TD50 at 0.5 h"],
 "data": [
  ["COc1cc2c(cc1OC)C(c1ccc([N+](=O)[O-])cc1)=NNC(=O)C2", "> 150 µmol/kg"]
]}

###

Consider the following compounds and their measured Rm readings.
# TEST DETAILS: Relative lipophilicity of compound
# Type: physicochemical
# PROTOCOL CONDITIONS: reversed-phase TLC, acetone/water 2:1

{"columns": ["SMILES STRUCTURE", "Rm"],
 "data": [
  ["COc1cc2c(cc1OC)C(c1ccccc1)=NN(C(C)=O)C(=O)C2", -0.052],
  ["COc1cc2c(cc1OC)C(c1ccc(N(C(C)=O)C(C)=O)cc1)=NN(C(C)=O)C(=O)C2", -0.673],
  ["COc1cc2c(cc1OC)C(c1ccccc1)=NN(C)C(=O)C2", 0],
  ["COc1cc2c(cc1OC)C(c1ccc(N)cc1)=NNC(=O)C2", -0.602],
  ["COc1cc2c(cc1OC)C(c1ccc(Cl)cc1)=NNC(=O)C2", 0.017],
  ["CC1=NN=C(c2ccc(N)cc2)c2cc3c(cc2C1)OCO3", -0.298],
  ["COc1cc2c(cc1OC)C(c1ccc(Cl)cc1)=NN(C)C(=O)C2", 0.25],
  ["COc1cc2c(cc1OC)C(c1ccc([N+](=O)[O-])cc1)=NNC(=O)C2", -0.096],
  ["COc1cc2c(cc1OC)C(c1ccc(Br)cc1)=NN(C)C(=O)C2", 0.288],
  ["COc1cc2c(cc1OC)C(c1ccc(N)cc1)=NN(C)C(=O)C2", -0.374],
  ["COc1cc2c(cc1OC)C(c1ccccc1)=NNC(=O)C2", -0.012]
]}

###

# TEST DETAILS: Therapeutic index it is the ratio between TD50 and ED50 (from the clonic phase of the audiogenic seizures)
# PROTOCOL CONDITIONS: read-out: TI
Values of therapeutic index (TD50/ED50) greater than or equal to 3 map to Condition met; values below map to Condition not met.

{"columns": ["SMILES STRUCTURE", "CAT"],
 "data": [
  ["COc1ccc2c(c1)CC(=O)NN=C2c1ccccc1", "Condition not met"],
  ["COc1cc2c(cc1OC)C(c1ccc(N)cc1)=NNC(=O)C2", "Condition met"],
  ["COc1cc2c(cc1OC)C(c1cccc(N)c1)=NNC(=O)C2", "Condition not met"],
  ["COc1cc2c(cc1OC)C(c1ccc(Br)cc1)=NNC(=O)C2", "Condition not met"],
  ["COc1cc2c(cc1OC)C(c1ccccc1)=NN(C)C(=O)C2", "Condition met"],
  ["COc1cc2c(cc1OC)C(c1ccccc1)=NN(C(C)=O)C(=O)C2", "Condition not met"],
  ["COc1cc2c(cc1OC)C(c1ccc(N)cc1)=NN(C)C(=O)C2", "Condition met"],
  ["COc1cc2c(cc1OC)C(c1ccccc1)=NNC(=O)C2", "Condition met"],
  ["COc1cc2c(cc1OC)C(c1ccc(Cl)cc1)=NNC(=O)C2", "Condition not met"]
]}

###

# TEST DETAILS: Motor toxicity in 50% of mice on locomotion assessed by Rotarod test following 30 min ip administration
# Assay type: organism-based
# PROTOCOL CONDITIONS: mouse, in vivo
Consider the following compounds and their measured TD50 at 0.5 h readings.
MEASURE: TD50 at 0.5 h (µmol/kg)

{"columns": ["SMILES STRUCTURE", "MEASURE", "RESULT UNITS", "SIGN QUALIFIER", "TEST VALUE"],
 "data": [
  ["COc1cc2c(cc1OC)C(c1ccc(C#N)cc1)=NNC(=O)C2", "TD50 at 0.5 h", "µmol/kg", ">", 150],
  ["COc1ccc2c(c1)CC(=O)NN=C2c1ccccc1", "TD50 at 0.5 h", "µmol/kg", "=", 197],
  ["COc1cc2c(cc1OC)C(c1cccc([N+](=O)[O-])c1)=NNC(=O)C2", "TD50 at 0.5 h", "µmol/kg", ">", 150],
  ["COc1cc2c(cc1OC)C(c1cccc(N)c1)=NNC(=O)C2", "TD50 at 0.5 h", "µmol/kg", "=", 51.5]
]}

###

# TEST DETAILS: Motor toxicity in 50% of mice on locomotion assessed by Rotarod test following 30 min ip administration
# Type: organism-based
# PROTOCOL CONDITIONS: mouse, in vivo
Mark Satisfied only when TD50 at 0.5 h stays strictly below 100 µmol/kg. Values equal to the cut-off are Not satisfied.

{"columns": ["SMILES STRUCTURE", "CAT"],
 "data": [
  ["CC1=NN=C(c2ccc(N)cc2)c2cc3c(cc2C1)OCO3", "Satisfied"],
  ["COc1cc2c(cc1OC)C(c1ccccc1)=NN(C)C(=O)C2", "Not satisfied"],
  ["COc1cc2c(cc1OC)C(c1ccc(C#N)cc1)=NN(C)C(=O)C2", "Not satisfied"],
  ["COc1cc2c(cc1OC)C(c1ccc(N)cc1)=NN(C)C(=O)C2", "Not satisfied"],
  ["COc1cc2c(cc1OC)C(c1ccc(C#N)cc1)=NN(C(C)=O)C(=O)C2", "Not satisfied"],
  ["COc1cc2c(cc1OC)C(c1ccc([N+](=O)[O-])cc1)=NN(C)C(=O)C2", "Not satisfied"],
  ["COc1cc2c(cc1OC)C(c1ccc(Br)cc1)=NNC(=O)C2", "Not satisfied"],
  ["COc1cc2c(cc1OC)C(c1ccccc1)=NNC(=O)C2", "Not satisfied"],
  ["COc1cc2c(cc1OC)C(c1ccc(N)cc1)=NNC(=O)C2", "Satisfied"],
  ["COc1cc2c(cc1OC)C(c1ccccc1)=NN(C(C)=O)C(=O)C2", "Not satisfied"],
  ["COc1cc2c(cc1OC)C(c1ccc(Cl)cc1)=NNC(=O)C2", "Not satisfied"]
]}

Data origin: ChEMBL document CHEMBL1129996
